Reference source for all entries: ChEMBL document CHEMBL3885861

- Organism: Rattus norvegicus
- Protocol text: Open TG-GATES - Regimen: Daily Repeat
- Format: toxicity, organism-based, Sprague-Dawley
- Parameters: regimen Daily Repeat, gender Male, age 6 weeks
- Study conditions: in vivo, po, 1000 mg/kg, […], tissue Blood, route gavage, dose level High, time 7 day
Record form. Attribute: RBC. Fill in for each entry.
Show the value, then the unit it is measured in.

For every listed record, write down its RBC.
1. CCOC(=O)CCC(=O)O[C@H]1[C@H](O[C@@H]2[C@@H](C)[C@H](O[C@H]3C[C@@](C)(OC)[C@@H](O)[C@H](C)O3)[C@@H](C)C(=O)O[C@H](CC)[C@@](C)(O)[C@H](O)[C@@H](C)C(=O)[C@H](C)C[C@@]2(C)O)O[C@H](C)C[C@@H]1N(C)C [ERYTHROMYCIN ETHYLSUCCINATE]
2. COC1=CC(=O)C[C@@H](C)[C@]12Oc1c(Cl)c(OC)cc(OC)c1C2=O
3. CCOc1ccc(NC(=O)CC(C)O)cc1 (stereo not drawn)

666.4 x10_4/ul
618 x10_4/ul
606 x10_4/ul
